compounds and their reported AC50
Molecular target: Beta-2 adrenergic receptor (Homo sapiens); note: assay procedure not described here
Sequence (P07550 whole entry): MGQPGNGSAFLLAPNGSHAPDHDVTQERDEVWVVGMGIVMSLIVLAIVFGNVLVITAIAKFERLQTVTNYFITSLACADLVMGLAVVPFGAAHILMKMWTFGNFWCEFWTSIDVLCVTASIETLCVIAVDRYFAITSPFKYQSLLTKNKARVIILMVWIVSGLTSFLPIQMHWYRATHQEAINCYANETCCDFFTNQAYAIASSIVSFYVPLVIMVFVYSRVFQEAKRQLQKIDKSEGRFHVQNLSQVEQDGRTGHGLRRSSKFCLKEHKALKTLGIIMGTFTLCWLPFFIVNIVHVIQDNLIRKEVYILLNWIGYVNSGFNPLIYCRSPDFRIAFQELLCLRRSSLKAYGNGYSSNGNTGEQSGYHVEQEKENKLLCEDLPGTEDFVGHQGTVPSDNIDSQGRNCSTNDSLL
Assay type: functional, cell-based
MEASURED_METRIC: AC50

- COMPOUND: "CCC(=O)O[C@H]1CC[C@H]2[C@@H]3CCC4=CC(=O)CC[C@]4(C)[C@H]3CC[C@]12C [TESTOSTERONE PROPIONATE]"
  EXPERIMENTAL_TARGET: "Beta-2 adrenergic receptor (Homo sapiens)"
  OBS_VALUE: "> 30 µM"
- COMPOUND: "CN(C)CCC[C@@]1(c2ccc(F)cc2)OCc2cc(C#N)ccc21"
  EXPERIMENTAL_TARGET: "Beta-2 adrenergic receptor (Homo sapiens)"
  OBS_VALUE: "> 30 µM"
- COMPOUND: "CCOC(=O)C1=C(C)NC(C)=C(C(=O)OC)C1c1cccc([N+](=O)[O-])c1 (centres undefined)"
  EXPERIMENTAL_TARGET: "Beta-2 adrenergic receptor (Homo sapiens)"
  OBS_VALUE: "> 30 µM"
- COMPOUND: "CCN(CC)C(=O)Nc1ccc(OCC(O)CNC(C)(C)C)c(C(C)=O)c1 (centres undefined)"
  EXPERIMENTAL_TARGET: "Beta-2 adrenergic receptor (Homo sapiens)"
  OBS_VALUE: "> 30 µM"

* * *

Quick record of AC50 values for Alpha-1A adrenergic receptor (Homo sapiens, UniProt P35348).

- COMPOUND: "Nc1ncn([C@H]2C[C@H](O)[C@@H](CO)O2)c(=O)n1"
  AC50: "> 30 µM"
- COMPOUND: "Cc1ncc2n1-c1ccc(Cl)cc1C(c1ccccc1F)=NC2"
  AC50: "> 10 µM"
- COMPOUND: "CCCC(CCC)C(N)=O [VALPROMIDE]"
  AC50: "> 10 µM"
- COMPOUND: "[H]/N=C(/N)N/C(=N/[H])NCCc1ccccc1"
  AC50: "15 µM"
- COMPOUND: "O=C1CN=C(c2ccccn2)c2cc(Br)ccc2N1"
  AC50: "> 10 µM"
- COMPOUND: "Nc1ccc(S(=O)(=O)Nc2nccs2)cc1"
  AC50: "5.1 µM"
- COMPOUND: "CC(C)N(CCC(C(N)=O)(c1ccccc1)c1ccccn1)C(C)C (centres undefined) [DISOPYRAMIDE]"
  AC50: "> 10 µM"
- COMPOUND: "C/C(=C\\C(=O)OCCCCCCCCC(=O)O)C[C@@H]1OC[C@H](C[C@@H]2O[C@H]2[C@@H](C)[C@H](C)O)[C@@H](O)[C@H]1O"
  AC50: "> 10 µM"
- COMPOUND: "CC(=O)[C@@]1(O)CC[C@H]2[C@@H]3C=C(Cl)C4=CC(=O)[C@@H]5C[C@@H]5[C@]4(C)[C@H]3CC[C@@]21C"
  AC50: "> 10 µM"

* * *

// values below are reported AC50
Target: UniProt:P08908
Sequence (P08908 whole entry): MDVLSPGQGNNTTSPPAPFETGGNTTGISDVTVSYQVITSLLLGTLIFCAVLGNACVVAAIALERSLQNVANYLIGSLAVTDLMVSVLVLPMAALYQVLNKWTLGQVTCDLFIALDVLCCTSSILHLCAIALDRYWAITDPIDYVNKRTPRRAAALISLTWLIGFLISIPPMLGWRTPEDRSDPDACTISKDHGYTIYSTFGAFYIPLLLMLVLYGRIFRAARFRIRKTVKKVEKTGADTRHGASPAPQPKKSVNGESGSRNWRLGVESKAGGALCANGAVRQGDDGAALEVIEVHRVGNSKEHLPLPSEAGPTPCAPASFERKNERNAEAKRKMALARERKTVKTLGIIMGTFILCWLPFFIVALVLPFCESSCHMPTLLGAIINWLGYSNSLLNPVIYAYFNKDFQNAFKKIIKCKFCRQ
Assay type: functional, cell-based

- MOLECULE: "CC(C)COCC(CN(Cc1ccccc1)c1ccccc1)N1CCCC1 (stereo not given)"
  AC50: "> 10 µM"
- MOLECULE: "O=C1CN=C(c2ccccn2)c2cc(Br)ccc2N1"
  AC50: "> 10 µM"
- MOLECULE: "CCOC(=O)C1=C(C)NC(C)=C(C(=O)OC)C1c1cccc([N+](=O)[O-])c1 (stereo not given)"
  AC50: "> 10 µM"
- MOLECULE: "CN1C(C(=O)Nc2ccccn2)=C(O)c2ccccc2S1(=O)=O"
  AC50: "> 10 µM"
- MOLECULE: "CC(=O)OCC(=O)[C@@]1(O)[C@H](C)C[C@H]2[C@@H]3CCC4=CC(=O)C=C[C@]4(C)[C@@]3(F)[C@@H](O)C[C@@]21C [DEXAMETHASONE ACETATE]"
  AC50: "> 10 µM"
- MOLECULE: "CCC1(c2ccccc2)CCC(=O)NC1=O (stereo not given) [GLUTETHIMIDE]"
  AC50: "> 30 µM"
- MOLECULE: "COc1cc2nccc(Oc3ccc(NC(=O)C4(C(=O)Nc5ccc(F)cc5)CC4)cc3)c2cc1OC [CABOZANTINIB]"
  AC50: "> 30 µM"
- MOLECULE: "C/C(=C\\C(=O)OCCCCCCCCC(=O)O)C[C@@H]1OC[C@H](C[C@@H]2O[C@H]2[C@@H](C)[C@H](C)O)[C@@H](O)[C@H]1O"
  AC50: "> 10 µM"
- MOLECULE: "C[C@H]1c2cccc(O)c2C(=O)C2=C(O)[C@]3(O)C(=O)C(C(N)=O)=C(O)[C@@H](N(C)C)[C@@H]3[C@@H](O)[C@@H]21"
  AC50: "> 10 µM"
- MOLECULE: "CCC(COC(=O)c1cc(OC)c(OC)c(OC)c1)(c1ccccc1)N(C)C (stereo not given)"
  AC50: "> 30 µM"
- MOLECULE: "O=C(O)CCNC(=O)c1ccccc1"
  AC50: "> 30 µM"
- MOLECULE: "C/N=C(\\NC)NCc1ccccc1"
  AC50: "> 30 µM"
- MOLECULE: "CC(C)[C@H](N)C(=O)OCC(CO)OCn1cnc2c(=O)nc(N)[nH]c21 (stereo not given in full)"
  AC50: "> 30 µM"
- MOLECULE: "Cc1onc(-c2ccccc2)c1-c1ccc(S(N)(=O)=O)cc1"
  AC50: "> 10 µM"
- MOLECULE: "COc1cc2nc(N3CCN(C(=O)C4CCCO4)CC3)nc(N)c2cc1OC (stereo not given)"
  AC50: "> 10 µM"
- MOLECULE: "CC1OC2(CS1)CN1CCC2CC1 (stereo not given)"
  AC50: "> 10 µM"
- MOLECULE: "COc1cc2c(cc1OC)C(CCc1ccc(Cl)cc1)N(C)CC2 (stereo not given)"
  AC50: "> 10 µM"
- MOLECULE: "[H]/N=C(/N)N/C(=N/[H])NCCc1ccccc1"
  AC50: "> 30 µM"
- MOLECULE: "CCC(=O)O[C@]1(C(=O)SCF)[C@H](C)C[C@H]2[C@@H]3C[C@H](F)C4=CC(=O)C=C[C@]4(C)[C@@]3(F)[C@@H](O)C[C@@]21C [FLUTICASONE PROPIONATE]"
  AC50: "> 10 µM"
- MOLECULE: "CC(C)Cc1ccc(C(C)C(=O)O)cc1 (stereo not given)"
  AC50: "> 10 µM"
- MOLECULE: "CCN(CC)CCNC(=O)c1cc(S(C)(=O)=O)ccc1OC [TIAPRIDE]"
  AC50: "> 30 µM"
- MOLECULE: "C[C@]12C=CC(=O)N[C@@H]1CC[C@@H]1[C@@H]2CC[C@]2(C)[C@@H](C(=O)Nc3cc(C(F)(F)F)ccc3C(F)(F)F)CC[C@@H]12 [DUTASTERIDE]"
  AC50: "> 10 µM"
- MOLECULE: "Nc1ncn([C@H]2C[C@H](O)[C@@H](CO)O2)c(=O)n1"
  AC50: "> 30 µM"
- MOLECULE: "CN(CC1(C)CCCO1)S(=O)(=O)c1ccc(Cl)c(S(N)(=O)=O)c1 (stereo not given) [MEFRUSIDE]"
  AC50: "> 30 µM"
- MOLECULE: "CC(N)C(O)c1ccccc1 (stereo not given)"
  AC50: "> 10 µM"
- MOLECULE: "CC(N)C12CC3CC(CC(C3)C1)C2 (stereo not given)"
  AC50: "> 10 µM"
- MOLECULE: "CN(C)CC[C@@H](c1ccc(Cl)cc1)c1ccccn1"
  AC50: "22 µM"
- MOLECULE: "OC[C@H]1O[C@@](CO)(O[C@H]2O[C@H](CO)[C@@H](O)[C@H](O)[C@H]2O)[C@@H](O)[C@@H]1O"
  AC50: "> 30 µM"
- MOLECULE: "CC(C(=O)O)c1ccc2c(c1)[nH]c1ccc(Cl)cc12 (stereo not given)"
  AC50: "> 10 µM"
- MOLECULE: "Nc1ccc(S(=O)(=O)Nc2nccs2)cc1"
  AC50: "> 10 µM"
- MOLECULE: "CC(=O)N[C@@H](CS)C(=O)O"
  AC50: "> 30 µM"
- MOLECULE: "Cc1cc2cc3c(C)cc(=O)oc3c(C)c2o1"
  AC50: "> 10 µM"
- MOLECULE: "Oc1ccc2c(c1)[C@@]13CCCC[C@@]1(O)[C@@H](C2)N(CC1CCC1)CC3"
  AC50: "> 30 µM"
- MOLECULE: "CCCN[C@H]1CCc2nc(N)sc2C1 [PRAMIPEXOLE]"
  AC50: "> 10 µM"
- MOLECULE: "C[C@H](CCC(=O)O)[C@H]1CC[C@H]2[C@@H]3[C@@H](O)C[C@@H]4C[C@H](O)CC[C@]4(C)[C@H]3CC[C@]12C"
  AC50: "> 30 µM"

Values were extracted from ChEMBL document CHEMBL5291721.
